Numbers sourced from patent US6221865A.

- experimental.system: protein farnesyltransferase (Rattus norvegicus, UniProt Q02293+Q04631)
- Construct: The enzyme is purified according to Reiss, Y., et al., Cell, 62: 81-88 (1990), utilizing steps one through three; from tissue; host or cells: rat brain
- experiment: Inhibition of farnesyltransferase (scintillation proximity assay, rat brain enzyme, biotin-K Ras B fragment substrate)
- Assay type: biochemical
- experimental.conditions: 1 × 10^-6 M (Table 2)
readout.type: % inhibition of farnesyltransferase at 1 × 10^-6 M (%)
Respond numerically; units are % and should not be typed.

Problem: # get_value(readout='% inhibition of farnesyltransferase at 1 × 10^-6 M', item= CSCC[C@H](NC(=O)c1ccc(NC(=O)[C@@H](N)COCc2ccccc2)cc1-c1ccccc1)C(=O)O )
Solution: 57

Problem: I would be grateful if you could share the reported % inhibition of farnesyltransferase at 1 × 10^-6 M for CSCC[C@H](NC(=O)c1ccc(OCCCOc2ccccc2)cc1-c1ccccc1C)C(=O)O .
Solution: 98

Problem: Can you share its % inhibition of farnesyltransferase at 1 × 10^-6 M? I mean this compound: CSCC[C@H](NC(=O)c1ccc(CN(CCc2ccccc2)Cc2ccccc2)cc1-c1ccccc1C)C(=O)O
Solution: 96

Problem: Entry CSCC[C@H](NC(=O)c1ccc(CN[C@H](CO)CC2CCCCC2)cc1-c1ccccc1C)C(=O)O : reported % inhibition of farnesyltransferase at 1 × 10^-6 M = ?
Solution: 99
